Listing: pIC50 of selected compounds
- System: NCI-H460
- procedure_summary: Cytotoxicity against human NCI-H460 cells assessed as inhibition of cell viability by MTT assay
- Format: functional, cell-based
# pIC50: negative log10 of molar concentration; output just the value

Incoming: What value of pIC50 on NCI-H460 does "CCCCCCCCCCCCO[C@@H]1O[C@@H](C)[C@H](O[C@@H]2O[C@@H](C)[C@H](OC(C)=O)[C@@H](O[C@@H]3O[C@@H](C)[C@H](OC(C)=O)[C@@H](O[C@@H]4O[C@@H](C)[C@H](OC(C)=O)[C@@H](O)[C@H]4O)[C@H]3OC(C)=O)[C@H]2O)[C@@H](O)[C@H]1O" have?
Outgoing: 5.04

Incoming: Now the compound "CCCCCCCCCCCCO[C@@H]1O[C@@H](C)[C@H](O[C@@H]2O[C@@H](C)[C@H](OC(C)=O)[C@@H](O[C@@H]3O[C@@H](C)[C@H](O)[C@@H](O[C@@H]4O[C@@H](C)[C@H](O)[C@@H](O)[C@H]4O)[C@H]3OC(C)=O)[C@H]2O)[C@@H](O)[C@H]1O"
Outgoing: 4.81

Incoming: Now the compound "CCCCCCCCCCCCO[C@@H]1O[C@@H](C)[C@H](O[C@@H]2O[C@@H](C)[C@H](OC(C)=O)[C@@H](O[C@@H]3O[C@@H](C)[C@H](O)[C@@H](OC(C)=O)[C@H]3OC(C)=O)[C@H]2O)[C@@H](O)[C@H]1O"
Outgoing: 4.90

Incoming: Now the compound "CCCCCCCCCCCCO[C@@H]1O[C@@H](C)[C@H](O[C@@H]2O[C@@H](C)[C@H](OC(C)=O)[C@@H](O[C@@H]3O[C@@H](C)[C@H](OC(C)=O)[C@@H](O)[C@H]3OC(C)=O)[C@H]2O)[C@@H](O)[C@H]1O"
Outgoing: 4.04

Incoming: Now the compound "CCCCCCCCCCCCO[C@@H]1O[C@@H](C)[C@H](O[C@@H]2O[C@@H](C)[C@H](OC(C)=O)[C@@H](O[C@@H]3O[C@@H](C)[C@H](OC(C)=O)[C@@H](O[C@@H]4O[C@@H](C)[C@H](O)[C@@H](O)[C@H]4O)[C@H]3OC(C)=O)[C@H]2O)[C@@H](O)[C@H]1O"
Outgoing: 4.91

Incoming: Now the compound "CCCCCCCCCCCCO[C@@H]1O[C@@H](C)[C@H](O[C@@H]2O[C@@H](C)[C@H](OC(C)=O)[C@@H](O[C@@H]3O[C@@H](C)[C@H](OC(C)=O)[C@@H](O[C@@H]4O[C@@H](C)[C@H](OC(C)=O)[C@@H](OC(C)=O)[C@H]4OC(C)=O)[C@H]3OC(C)=O)[C@H]2O)[C@@H](O)[C@H]1O"
Outgoing: 4.79

Incoming: Now the compound "CCCCCCCCCCCCO[C@@H]1O[C@@H](C)[C@H](O[C@@H]2O[C@@H](C)[C@H](OC(C)=O)[C@@H](O[C@@H]3O[C@@H](C)[C@H](O)[C@@H](O[C@@H]4O[C@@H](C)[C@H](OC(C)=O)[C@@H](OC(C)=O)[C@H]4OC(C)=O)[C@H]3OC(C)=O)[C@H]2O)[C@@H](O)[C@H]1O"
Outgoing: 5.01
